The reported measurements were obtained from paper PMC4048129.

For each entry below, report its MIC value.
- Test system: B. cereus (ATCC 10876)
- assay protocol: Microdilution susceptibility testing
- conditions: Bacillus cereus, ATCC10876
Answers are plain numbers, in µg/mL.

>>> df
                 molecule  value
0  CCCCCCCCCCCCCC#CC(=O)O   31.3

Report MIC for every entry below.
1. CCCCCCCCCCCCCCCC#CC(=O)O
2. COc1cccc(OC)c1C(=O)N[C@@H]1C(=O)N2[C@@H]1SC(C)(C)[C@@H]2C(=O)O [Methicillin, reference compound]
3. O=C(O)c1cn(C2CC2)c2cc(N3CCNCC3)c(F)cc2c1=O [Ciprofloxacin, reference compound]
4. CCCCCCCCCC#CCCC#CC(=O)O

# output
1. 15.6
2. 62.5
3. 0.05
4. 62.5
